- Tgt: T1, Carboxypeptidase A from bovine pancreas (bovine, UniProt P00730 111-419)
- T1 construct: carboxypeptidase A from bovine pancreas; Free in solution for the Ki determinations; also called bCPA; bovine CPA; source: bought: Sigma-Aldrich (from bovine pancreas)
- T1 sequence (looked up): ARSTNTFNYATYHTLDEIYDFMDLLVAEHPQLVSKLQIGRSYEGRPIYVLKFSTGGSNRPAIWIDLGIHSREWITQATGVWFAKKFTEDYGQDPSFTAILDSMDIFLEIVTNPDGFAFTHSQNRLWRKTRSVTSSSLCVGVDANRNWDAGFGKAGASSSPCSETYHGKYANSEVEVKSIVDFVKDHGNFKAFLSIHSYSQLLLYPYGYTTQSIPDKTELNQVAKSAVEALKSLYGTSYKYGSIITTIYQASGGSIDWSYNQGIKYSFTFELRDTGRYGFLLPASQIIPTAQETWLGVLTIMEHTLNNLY
- Procedure Text: enzyme inhibition kinetics (Morrison equation for tight-binding inhibitors); 25 °C, equilibrium conditions ([E0]/Ki <= 10), fixed bCPA or pCPB, 0.1 mM N-(4-methoxyphenylazoformyl)-Phe-OH (bCPA) or -Arg-OH (pCPB), Tris-HCl pH 7.5, 0.2 M NaCl; pre-incubated 15 min at RT; absorbance at 340 nm; competitive inhibition assumed
- Condition Description: both partners purified
No end group written: not given here.
Reported pKi is given for each of the following binders.
The quantity pKi is defined as the negative base-10 logarithm of the molar concentration.

{"Binder": "QQHADPICNKPCKTHDDCSGAWFCQACWNSARTCGPYVG (natural protein, Solanum tuberosum subsp. tuberosum, UniProt P01075 1-39, looked up, also called canonical PCI) [recombinant canonical potato carboxypeptidase inhibitor (PCI)]", "pKi": 8.37}

[ask] Reported pKi for QRDPDPICNKPCKTHDDCSGAWFCQACWNSARTCGPYVG (natural protein, also: N-terminal Gln partly cyclised to pyroglutamate, mature chuPCI (39 amino acids) of the chuPCI precursor, S. tuberosum subsp. andigenum cv; Churqueña; Cloned in pIN-III-OmpA3 with the OmpA3 signal peptide at the N-terminus for secretion; The mass of the purified protein (4326.3 Da) fits the 39 residues without the signal peptide; Three disulfide bonds (Cys8-Cys24, Cys12-Cys27, Cys18-Cys34); also called rchuPCI; recombinant churqueña PCI; source: …) : what is it?
[reply] 7.97
